target or test system: UniProt P11229
Sequence (P11229 whole entry): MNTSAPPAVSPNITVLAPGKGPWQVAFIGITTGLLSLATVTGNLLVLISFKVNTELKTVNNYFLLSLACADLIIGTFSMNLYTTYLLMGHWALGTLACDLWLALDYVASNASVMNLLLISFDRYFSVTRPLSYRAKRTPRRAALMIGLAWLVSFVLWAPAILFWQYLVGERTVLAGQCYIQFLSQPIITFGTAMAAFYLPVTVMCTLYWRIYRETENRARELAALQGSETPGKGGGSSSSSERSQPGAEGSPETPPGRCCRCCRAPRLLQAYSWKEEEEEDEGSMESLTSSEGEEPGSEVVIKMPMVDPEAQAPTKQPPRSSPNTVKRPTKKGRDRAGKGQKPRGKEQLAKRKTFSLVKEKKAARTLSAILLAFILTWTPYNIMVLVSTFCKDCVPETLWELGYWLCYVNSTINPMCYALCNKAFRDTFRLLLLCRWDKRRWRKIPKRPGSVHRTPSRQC
assay: Measurement of M1 receptor positive allosteric modulator (M1PAM) activity (calcium fluorescence, Fluo-4)
assay conditions: inflection point of concentration-dependent curve; CHO-K1 cells stably expressing hCHRM1; in presence of acetylcholine at EC20 (final 0.8-1.0 nM); read-out: IP value
measured endpoint: EC50 (nM)

Use the examples below as a reference point.
Cc1c(Cc2ccc(-c3cscn3)cc2)cc(C(=O)N[C@H]2COCC[C@@H]2O)c(F)c1C [Example 32]; 16
Cc1c(Cc2ccc(-c3cn(C)nn3)cc2)cc(C(=O)N[C@H]2CCCC[C@@H]2O)c(OC(C)C)c1C [Example 16]; 30

P = COc1c(C(=O)N[C@H]2CCCC[C@@H]2O)cc(Cc2ccc(-c3ccn(C)n3)nc2)c(C)c1C [Example 21]
Q = Cc1c(Cc2ccc(-n3cccn3)nc2)cc(C(=O)N[C@H]2CCC[C@@H]2O)c(F)c1C [Example 19]
# compare EC50 for P vs Q ; return the one with the smaller value // output: label of the selected item
P
(P: 10 nM, Q: 84 nM)

src = patent US10548877B2
